tested on: NCI-H1876 complex spheroid growth, % test/control; experiment: Anticancer human tumor NCI-H1876 cell line growth inhibition [Asc]; details: second compound 0.316 µM; first compound 0.316 µM; hits give low values;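 note: compound exposure lasted 7 days starting three days after seeding; 100% = DMSO vehicle control wells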
measured attribute: viability, T/C (%)
Answer format: numeric, % implied, no suffix.

Examples with answers:
Request - read-out viability, T/C | tested on NCI-H1876 complex spheroid growth, % test/control | molecule CNC(C)C(=O)NC1CN(S(=O)(=O)c2cccc(S(=O)(=O)N3CCC4CCC(C(=O)NC(c5ccccc5)c5ccccc5)N4C(=O)C(NC(=O)C(C)NC)C3)c2)CCC2CCC(C(=O)NC(c3ccccc3)c3ccccc3)N2C1=O (configuration not stated) + Cc1c(S(C)(=O)=O)c(-c2cc(F)cc(N3CCN(c4ccc(NS(=O)(=O)c5ccc(NC(CCN6CCC(C(=O)OCCCP(=O)(O)O)CC6)CSc6ccccc6)c(S(=O)(=O)C(F)(F)F)c5)cc4)CC3)c2)c(-c2ccc(Cl)cc2)n1C(C)C
103

Form field - read-out: viability, T/C; system: NCI-H1876 complex spheroid growth, % test/control; submitted item: CCN1CCN(Cc2ccc(Nc3ncc(F)c(-c4cc(F)c5nc(C)n(C(C)C)c5c4)n3)nc2)CC1 + CNC(C)C(=O)NC1CN(S(=O)(=O)c2cccc(S(=O)(=O)N3CCC4CCC(C(=O)NC(c5ccccc5)c5ccccc5)N4C(=O)C(NC(=O)C(C)NC)C3)c2)CCC2CCC(C(=O)NC(c3ccccc3)c3ccccc3)N2C1=O
126

Notebook: pull reported viability, T/C for NCI-H1876 complex spheroid growth, % test/control, entry O=C(c1ccc(F)c(F)c1Nc1ccc(I)cc1F)N1CC(O)([C@@H]2CCCCN2)C1 + Cc1c(S(C)(=O)=O)c(-c2cc(F)cc(N3CCN(c4ccc(NS(=O)(=O)c5ccc(NC(CCN6CCC(C(=O)OCCCP(=O)(O)O)CC6)CSc6ccccc6)c(S(=O)(=O)C(F)(F)F)c5)cc4)CC3)c2)c(-c2ccc(Cl)cc2)n1C(C)C
84.2

Reported viability, T/C for NCI-H1876 complex spheroid growth, % test/control, given COc1c(OCCCN2CCOCC2)ccc2c3n(c(=NC(=O)c4cnc(N)nc4)nc12)CCN3 + CNC(C)C(=O)NC1CN(S(=O)(=O)c2cccc(S(=O)(=O)N3CCC4CCC(C(=O)NC(c5ccccc5)c5ccccc5)N4C(=O)C(NC(=O)C(C)NC)C3)c2)CCC2CCC(C(=O)NC(c3ccccc3)c3ccccc3)N2C1=O ?
70

Short answer please: viability, T/C, NCI-H1876 complex spheroid growth, % test/control, entry O=C(c1ccc(F)c(F)c1Nc1ccc(I)cc1F)N1CC(O)([C@@H]2CCCCN2)C1 + CNC(C)C(=O)NC1CN(S(=O)(=O)c2cccc(S(=O)(=O)N3CCC4CCC(C(=O)NC(c5ccccc5)c5ccccc5)N4C(=O)C(NC(=O)C(C)NC)C3)c2)CCC2CCC(C(=O)NC(c3ccccc3)c3ccccc3)N2C1=O
97

***
Missing value: viability, T/C, NCI-H1876 complex spheroid growth, % test/control, entry C#Cc1c(F)ccc2cc(O)cc(-c3ncc4c(N5CC6CCC(C5)N6)nc(OCC56CCCN5CC(F)C6)nc4c3F)c12 (configuration not stated) + Cc1c(S(C)(=O)=O)c(-c2cc(F)cc(N3CCN(c4ccc(NS(=O)(=O)c5ccc(NC(CCN6CCC(C(=O)OCCCP(=O)(O)O)CC6)CSc6ccccc6)c(S(=O)(=O)C(F)(F)F)c5)cc4)CC3)c2)c(-c2ccc(Cl)cc2)n1C(C)C . Fill in?
85.5

Query the reported viability, T/C for NCI-H1876 complex spheroid growth, % test/control; item: O=C(c1cc(Cc2n[nH]c(=O)c3ccccc23)ccc1F)N1CCN(C(=O)C2CC2)CC1 + CNC(C)C(=O)NC1CN(S(=O)(=O)c2cccc(S(=O)(=O)N3CCC4CCC(C(=O)NC(c5ccccc5)c5ccccc5)N4C(=O)C(NC(=O)C(C)NC)C3)c2)CCC2CCC(C(=O)NC(c3ccccc3)c3ccccc3)N2C1=O
116

Give recorded viability, T/C with NCI-H1876 complex spheroid growth, % test/control for the following molecule: CCN1CCN(Cc2ccc(Nc3ncc(F)c(-c4cc(F)c5nc(C)n(C(C)C)c5c4)n3)nc2)CC1 + Cc1c(S(C)(=O)=O)c(-c2cc(F)cc(N3CCN(c4ccc(NS(=O)(=O)c5ccc(NC(CCN6CCC(C(=O)OCCCP(=O)(O)O)CC6)CSc6ccccc6)c(S(=O)(=O)C(F)(F)F)c5)cc4)CC3)c2)c(-c2ccc(Cl)cc2)n1C(C)C
115
